Taken from patent US10669290B2.

Entries and their MIC values follow.
system: K.P. 156319 KPC-3; experiment: Broth microdilution MIC, K. pneumoniae 156319; format: cell-based; conditions: Klebsiella pneumoniae; fixed meropenem 4 μg/mL, CAMHB, 16-20 hours 37° C.; read-out: MIC of exemplary compounds in presence of fixed β-lactams, Fixed Mero, K.P. 156319 KPC-3

# COMPOUND, TESTED TARGET, RESULT
rows = [
    ("CN(CCN)[C@H]1CC[C@H](CC(=O)N[C@H]2Cc3cccc(C(=O)O)c3OB2O)CC1 [Example 63]", "K.P. 156319 KPC-3", "< 4 µg/mL"),
    ("O=C(CC1CCC(N2CCOCC2)CC1)N[C@H]1Cc2cccc(C(=O)O)c2OB1O (stereo partly shown) [Example 40]", "K.P. 156319 KPC-3", "< 4 µg/mL"),
    ("N[C@H]1CC(CC(=O)N[C@H]2Cc3cccc(C(=O)O)c3OB2O)C[C@@H]1N [Example 37]", "K.P. 156319 KPC-3", "< 4 µg/mL"),
]

Continue with the next compound.
Incoming: For N=CN[C@H]1CC[C@H](CC(=O)N[C@H]2Cc3cccc(C(=O)O)c3OB2O)CC1 [Example 30] , what is its reported MIC?
Outgoing: < 4 µg/mL

----------
Reported MIC values are given for each entry in this list.
system: P. aerug. Ps296 VIM-2; assay: Broth microdilution MIC, P. aeruginosa Ps296; type: cell-based; settings: Pseudomonas aeruginosa; fixed meropenem 4 μg/mL, CAMHB, 16-20 hours 37° C.; read-out: MIC of exemplary compounds in presence of fixed β-lactams, Fixed Mero, P. aerug. Ps296 VIM-2

# MOLECULE, MIC
records = [
    ("CNCCN[C@H]1CC[C@H](CC(=O)N[C@H]2Cc3cccc(C(=O)O)c3OB2O)CC1", "< 4 µg/mL"),
]

Next, consider the following molecule.
Incoming: Given `N=C(N)NCCN[C@H]1CC[C@H](CC(=O)N[C@H]2Cc3cccc(C(=O)O)c3OB2O)CC1` , state its recorded MIC.
Outgoing: < 4 µg/mL

----------
test system: P. aerug. Ps296 VIM-2; assay: Broth microdilution MIC, P. aeruginosa Ps296; assay type: cell-based; conditions: Pseudomonas aeruginosa; fixed meropenem 4 μg/mL, CAMHB, 16-20 hours 37° C.; read-out: MIC of exemplary compounds in presence of fixed β-lactams, Fixed Mero, P. aerug. Ps296 VIM-2
REPORTED PROPERTY: MIC

Use these answered entries as a reference point.
# COMPOUND, MIC
records = [
    ("O=C(C[C@H]1CC[C@H](NCc2cnc[nH]2)CC1)N[C@H]1Cc2cccc(C(=O)O)c2OB1O [Example 70]", "< 4 µg/mL"),
    ("O=C(C[C@H]1CC[C@H](NCCNCC2CC2)CC1)N[C@H]1Cc2cccc(C(=O)O)c2OB1O [Example 74]", "< 4 µg/mL"),
    ("NC[C@H](N)C(=O)N[C@H]1CC[C@H](CC(=O)N[C@H]2Cc3cccc(C(=O)O)c3OB2O)CC1 [Example 13]", "< 4 µg/mL"),
    ("O=C(C[C@H]1CC[C@@H](N2CCNCC2)CC1)N[C@H]1Cc2cccc(C(=O)O)c2OB1O [Example 17]", "> 32 µg/mL"),
    ("NCCNC[C@H]1CC[C@H](CC(=O)N[C@H]2Cc3cccc(C(=O)O)c3OB2O)CC1 [Example 10]", "8 to 32 µg/mL"),
]

Incoming: Please look up its MIC: O=C(C[C@H]1CC[C@H](NCCNc2ccccn2)CC1)N[C@H]1Cc2cccc(C(=O)O)c2OB1O [Example 48]
Outgoing: 8 to 32 µg/mL

Incoming: Request: NCCC(N)[C@H]1CC[C@H](CC(=O)N[C@H]2Cc3cccc(C(=O)O)c3OB2O)CC1 (stereo partly shown) [Example 76]
Outgoing: 8 to 32 µg/mL

----------
system: P. aerug. Ps296 VIM-2; experiment: Broth microdilution MIC, P. aeruginosa Ps296; type: cell-based; conditions: Pseudomonas aeruginosa; fixed meropenem 4 μg/mL, CAMHB, 16-20 hours 37° C.; read-out: MIC of exemplary compounds in presence of fixed β-lactams, Fixed Mero, P. aerug. Ps296 VIM-2
REPORTED PROPERTY: MIC

# COMPOUND, RESULT
data = [
    ("O=C(C[C@H]1CC[C@H](N2CCNCC2)CC1)N[C@H]1Cc2cccc(C(=O)O)c2OB1O [Example 16]", "8 to 32 µg/mL"),
    ("NCCNC1CC(CC(=O)N[C@H]2Cc3cccc(C(=O)O)c3OB2O)C1 (some centres unmarked) [Example 55]", "< 4 µg/mL"),
    ("O=C(C[C@H]1CC[C@H](NCCN(CC2CC2)CC2CC2)CC1)N[C@H]1Cc2cccc(C(=O)O)c2OB1O [Example 75]", "< 4 µg/mL"),
    ("N[C@H]1CC[C@H](C(=O)N[C@H]2Cc3cccc(C(=O)O)c3OB2O)CC1 [Example 2]", "< 4 µg/mL"),
]

Incoming: Look up MIC: N[C@@H](CO)CN[C@H]1CC[C@H](CC(=O)N[C@H]2Cc3cccc(C(=O)O)c3OB2O)CC1 [Example 65]
Outgoing: 8 to 32 µg/mL

Incoming: Next record, please: NCC1CCC(=CC(=O)N[C@H]2Cc3cccc(C(=O)O)c3OB2O)CC1 (some centres unmarked) [Example 11]
Outgoing: 8 to 32 µg/mL

Incoming: Again, but for O=C(CC1CCC(O)CC1)N[C@H]1Cc2cccc(C(=O)O)c2OB1O (some centres unmarked) [Example 47]
Outgoing: 8 to 32 µg/mL

Incoming: Lookup O=C(CC1CCC(N2CCOCC2)CC1)N[C@H]1Cc2cccc(C(=O)O)c2OB1O (some centres unmarked) [Example 40]
Outgoing: > 32 µg/mL

----------
tested on: K.P. 156319 KPC-3; experiment: Broth microdilution MIC, K. pneumoniae 156319; assay type: cell-based; settings: Klebsiella pneumoniae; fixed meropenem 4 μg/mL, CAMHB, 16-20 hours 37° C.; read-out: MIC of exemplary compounds in presence of fixed β-lactams, Fixed Mero, K.P. 156319 KPC-3
In this section we review reported MIC values for a set of compounds.

Worked set:
# COMPOUND, TESTED TARGET, MIC
measured = [
    ("NCCNC1CCC(O)(CC(=O)N[C@H]2Cc3cccc(C(=O)O)c3OB2O)CC1 (stereo partly drawn)", "K.P. 156319 KPC-3", "< 4 µg/mL"),
    ("CSCCN[C@H]1CC[C@H](CC(=O)N[C@H]2Cc3cccc(C(=O)O)c3OB2O)CC1", "K.P. 156319 KPC-3", "< 4 µg/mL"),
    ("NCCC(N)[C@H]1CC[C@H](CC(=O)N[C@H]2Cc3cccc(C(=O)O)c3OB2O)CC1 (stereo partly drawn)", "K.P. 156319 KPC-3", "< 4 µg/mL"),
    ("CCNCCN[C@H]1CC[C@H](CC(=O)N[C@H]2Cc3cccc(C(=O)O)c3OB2O)CC1", "K.P. 156319 KPC-3", "< 4 µg/mL"),
    ("N=C(N)NC[C@H]1CC[C@H](CC(=O)N[C@H]2Cc3cccc(C(=O)O)c3OB2O)CC1", "K.P. 156319 KPC-3", "< 4 µg/mL"),
    ("N[C@H]1CC[C@@H](CC(=O)N[C@H]2Cc3cccc(C(=O)O)c3OB2O)CC1", "K.P. 156319 KPC-3", "< 4 µg/mL"),
    ("NCC(=O)N[C@H]1CC[C@H](CC(=O)N[C@H]2Cc3cccc(C(=O)O)c3OB2O)CC1", "K.P. 156319 KPC-3", "< 4 µg/mL"),
    ("C[C@H](N)CNCCN[C@H]1CC[C@H](CC(=O)N[C@H]2Cc3cccc(C(=O)O)c3OB2O)CC1", "K.P. 156319 KPC-3", "< 4 µg/mL"),
    ("NCCN[C@H]1CC[C@H](CC(=O)N[C@@H]2Cc3cccc(C(=O)O)c3OB2O)CC1", "K.P. 156319 KPC-3", "> 32 µg/mL"),
    ("O=C(C[C@H]1CC[C@H](NCCNc2ccccn2)CC1)N[C@H]1Cc2cccc(C(=O)O)c2OB1O", "K.P. 156319 KPC-3", "< 4 µg/mL"),
]

Incoming: Consider the compound `O=C(C[C@H]1CC[C@H](NCCN(CC2CC2)CC2CC2)CC1)N[C@H]1Cc2cccc(C(=O)O)c2OB1O` and give its measured MIC.
Outgoing: < 4 µg/mL

Incoming: `O=C(C[C@H]1CC[C@H](NCCO)CC1)N[C@H]1Cc2cccc(C(=O)O)c2OB1O` , same question.
Outgoing: < 4 µg/mL

Incoming: And `N=C(N)N[C@H]1CC[C@H](CC(=O)N[C@H]2Cc3cccc(C(=O)O)c3OB2O)CC1` ?
Outgoing: < 4 µg/mL

Incoming: Can you check NCC1CCC(=CC(=O)N[C@H]2Cc3cccc(C(=O)O)c3OB2O)CC1 (stereo partly drawn) next?
Outgoing: < 4 µg/mL

Incoming: Request: `O=C(C[C@H]1CC[C@H](NCCNCCO)CC1)N[C@H]1Cc2cccc(C(=O)O)c2OB1O`
Outgoing: < 4 µg/mL

Incoming: Please give the result for NC1CC(CC(=O)N[C@H]2Cc3cccc(C(=O)O)c3OB2O)C1 (stereo partly drawn) too.
Outgoing: < 4 µg/mL

Incoming: Then `O=C(C[C@H]1CC[C@H](NCCNc2ncccn2)CC1)N[C@H]1Cc2cccc(C(=O)O)c2OB1O` ?
Outgoing: < 4 µg/mL

Incoming: Thanks! And `O=C(C[C@H]1CC[C@H](NCc2ccccn2)CC1)N[C@H]1Cc2cccc(C(=O)O)c2OB1O` ?
Outgoing: < 4 µg/mL

Incoming: Try `CN(C)C[C@H]1CC[C@H](CC(=O)N(C)[C@H]2Cc3cccc(C(=O)O)c3OB2O)CC1` next.
Outgoing: 8 to 32 µg/mL

Incoming: Next record, please: `NC[C@H](N)C(=O)N[C@H]1CC[C@H](CC(=O)N[C@H]2Cc3cccc(C(=O)O)c3OB2O)CC1`
Outgoing: 8 to 32 µg/mL

Incoming: Continue with `CN(C)CC(=O)NC[C@H]1CC[C@H](CC(=O)N[C@H]2Cc3cccc(C(=O)O)c3OB2O)CC1`
Outgoing: 8 to 32 µg/mL
